In this section, each of the compounds is paired with its reported minimal effective concentration.
System: iCell cardiomyocytes (human iPSC-derived cardiomyocytes)
Experiment: High-content imaging of cytotoxicity and mitochondrial integrity in iPSC-CMs
Format: cell-based
Settings: Homo sapiens, iPSC-CM, 1.5 h, iPSC-CM; read-out: cm.mii.90min POD
Counter-ions that a name gives are not always drawn.
Your answer is read as µM, so omit the unit and give the number.

// known answers, use as guide
Oc1ccc(O)c(-c2ccc(Cl)cc2)c1	7.9
O=S(=O)(O)Oc1ccc(-c2ccc(Cl)cc2)cc1 [4'-yl PCB 3 sulfate]	100
Oc1ccccc1-c1ccc(Cl)cc1	9.15

Continue with the compound presented below.
Request: I have this compound here, O=S(=O)(O)Oc1cc(Cl)ccc1-c1ccccc1 [2-yl PCB 3 sulfate] , and I need its recorded minimal effective concentration.
Result: 7.39

* * *

Test system: iCell cardiomyocytes (human iPSC-derived cardiomyocytes)
Assay: Intracellular Ca2+ flux / beating parameters in iCell cardiomyocytes (FLIPR tetra), 90 min or 24 h
Assay type: cell-based
Conditions: Homo sapiens, Cardiomyocyte, 1.5 h, 0.10 µM; 0.00 µM = 100.00; read-out: cm.bpm.90min
Structures can show the parent of a compound that is named as a salt.
Below, each of the compounds is paired with its reported activity at 0.1 µM value.
Express the result in % but write the number alone.

Some entries whose results are on file:
Oc1ccc(-c2cccc(Cl)c2)cc1Cl	102
O=S(=O)(O)Oc1cc(Cl)ccc1-c1ccccc1 [2-yl PCB 3 sulfate]	97.8
O=S(=O)(O)Oc1cc(-c2ccccc2)ccc1Cl [3-yl PCB 3 sulfate]	97.8
Clc1ccc(-c2ccccc2)cc1	96.5

Request: activity at 0.1 µM lookup needed for Clc1cccc(-c2cccc(Cl)c2)c1 , thanks.
Result: 103

* * *

This listing pairs compounds with measured activity at 0.1 µM.
System: iCell cardiomyocytes (human iPSC-derived cardiomyocytes)
Test: Intracellular Ca2+ flux / beating parameters in iCell cardiomyocytes (FLIPR tetra), 90 min or 24 h
Type: cell-based
Details: Homo sapiens, Cardiomyocyte, 1.5 h, 0.10 µM; 0.00 µM = 100.00; read-out: cm.amp.cv.90min
Counter-ions that a name gives are not always drawn.
Please reply with the bare figure in % and do not write the unit itself.

Oc1ccc(O)c(-c2ccc(Cl)cc2)c1 [2',5'-DiOH PCB3]	110
Oc1cccc(-c2ccc(Cl)cc2)c1 [3'-OH PCB3]	80.2

Request: Checklist item: activity at 0.1 µM tested on iCell cardiomyocytes (human iPSC-derived cardiomyocytes), entry O=S(=O)(O)Oc1cc(-c2ccccc2)ccc1Cl [3-yl PCB 3 sulfate] , value?
Result: 103

Request: Reported activity at 0.1 µM for iCell cardiomyocytes (human iPSC-derived cardiomyocytes), given Oc1ccc(-c2ccc(Cl)cc2)cc1 [4'-OH PCB3] ?
Result: 107

Request: Tell me reported activity at 0.1 µM for Oc1cc(Cl)cc(-c2cccc(Cl)c2)c1 [5-OH PCB 11] , tested with iCell cardiomyocytes (human iPSC-derived cardiomyocytes).
Result: 103

Request: Notebook: pull reported activity at 0.1 µM for iCell cardiomyocytes (human iPSC-derived cardiomyocytes), entry Clc1cccc(-c2cccc(Cl)c2)c1 [PCB11]
Result: 91.4

* * *

Collected activity at 0.1 µM values appear next to each entry.
Test system: HUVECs
Assay: Tube formation (tubulogenesis) assay in HUVECs, 18 h
Format: cell-based, human
Settings: Homo sapiens, HUVEC, 18 h, HUVECs, 0.10 µM, 0.00 µM = 100.00, read-out: huvec.tta.18hr
Respond with the bare value in %.

Request: Requested read-out: activity at 0.1 µM. Entry: O=C1C=CC(=O)C(c2ccc(Cl)cc2)=C1 [4-Cl-BQ, 2-(4-Chlorophenyl)benzo-2,5-quinone]
Result: 99.2
